target: Endothelial PAS domain-containing protein 1 (Homo sapiens) (UniProt Q99814); experiment: HIF-2a and HIF-1a reporter inhibition panel, dose response, selectivity assay for HIF-2a inhibitor project, cell-based, luminescence (AID 651581); conditions: HIF-2a, run 1
Property Name: log10(IC50) (log10 of the value in µM)
Base-10 log of IC50, unit µM.

Sample records with log10(IC50):
COc1ccccc1N1C(=O)C=C(Sc2nc(C)cc(C)n2)C1=O : 1.01
O=C(O)c1cccc(NC(=S)NC(=O)c2ccc3ccccc3c2)c1 : 1.04
Cc1nc(SCCC(=O)O)c2cc(-c3ccccc3)sc2n1 : -0.71
CCOC(=O)Cn1cc(/C=C/[N+](=O)[O-])c2ccccc21 : 1.13
COC(=O)COc1ccc(-c2nccc(-c3ccccn3)n2)cc1 : 0.02

Quote log10(IC50) reported for `Cc1cc(C)c(C)c(S(=O)(=O)ON2C(=O)c3ccccc3C2=O)c1C` please.
0.95

Quote log10(IC50) reported for COc1ccccc1C(C[N+](=O)[O-])c1c(N)n(C)c(=O)n(C)c1=O (stereo not drawn) please.
1.01

Quote log10(IC50) reported for `COc1ccc(CNC(=O)c2nc(S(=O)(=O)Cc3ccccc3)ncc2Cl)cc1` please.
0.94

Quote log10(IC50) reported for `Cc1nc(SCc2cccc(C(=O)O)c2)nc2c1CCCC2` please.
0.11

Quote log10(IC50) reported for `O=C(Nc1ccc(Cl)cc1Cl)c1cccc(N2C(=O)C=CC2=O)c1` please.
0.89

Quote log10(IC50) reported for `Cc1cccc(NC(=S)NNc2ncc(C(F)(F)F)cc2Cl)c1` please.
0.95

Quote log10(IC50) reported for `O=C(Nc1cc(S(=O)(=O)N2CCOCC2)ccc1Cl)c1cc([N+](=O)[O-])ccc1Cl` please.
1.18

Quote log10(IC50) reported for `Cc1c(CCC(=O)O)c(=O)oc2cc(OCc3ccccc3Br)ccc12` please.
0.78

Source: PubChem BioAssay AID651581
